B1: TPD52L2 (parent)
chain: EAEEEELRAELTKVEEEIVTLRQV

# Variants of: B1
# experimentNotes: protein stability index of a GFP-peptide fusion (GPS, HEK-293T) (PSI 1-6); higher = more stable;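 also: lentivirally expressed fusions sorted by FACS into six bins by GFP to DsRed ratio, PSI derived from sequencing read proportions per bin multiplied by bin number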
# measurementContext: c terminus: a fixed tail appended
metricName: protein stability index
Lab note: record the figure alone, no unit after it.

Asked: Assign protein stability index to the following record: L7N
Given back: 5.41

Asked: Assign protein stability index to the following record: T20S
Given back: 3.56

Asked: Assign protein stability index to the following record: V19Q
Given back: 3.04

Asked: Assign protein stability index to the following record: E1H
Given back: 3.07

Asked: Assign protein stability index to the following record: E15W
Given back: 3.03

Asked: Assign protein stability index to the following record: L11D
Given back: 5.92

Asked: Assign protein stability index to the following record: E1T
Given back: 2.79

Asked: Assign protein stability index to the following record: E10G
Given back: 5.34

Asked: Assign protein stability index to the following record: R22F
Given back: 2.33

Asked: Assign protein stability index to the following record: E10C
Given back: 4.84

Asked: Assign protein stability index to the following record: E16Q
Given back: 3.52

Asked: Assign protein stability index to the following record: E17P
Given back: 4.66

Asked: Assign protein stability index to the following record: R8N
Given back: 4.51

Asked: Assign protein stability index to the following record: E16I
Given back: 2.61

Asked: Assign protein stability index to the following record: E17Q
Given back: 3.86

Asked: Assign protein stability index to the following record: R22A
Given back: 4.54

Asked: Assign protein stability index to the following record: E1S
Given back: 2.97

Asked: Assign protein stability index to the following record: L11M
Given back: 3.99

Asked: Assign protein stability index to the following record: E17M
Given back: 4.02

Asked: Assign protein stability index to the following record: E15C
Given back: 3.94

Asked: Assign protein stability index to the following record: V24D
Given back: 5.2

Asked: Assign protein stability index to the following record: A9N
Given back: 3.79
